Below: a set of entries, each annotated with reported IC50 at 72 h.
Assay: Nephrotoxicity assay: in vitro cytotoxicity of HK-2 cells by CCK-8 assay
Type: cell-based
Conditions: human, HK-2 cells (human renal), 72 h incubation with drug-containing medium
Numbered stars: 1 amine (or outer) side, 2 acyl side, 3 side chain; on linkers, the order of the positions; unused ones are H or OH. Bridge positions count the residues as written; N and C are the ends. Square brackets hold non-standard residues; d marks the D form. Peptide text beside a SMILES is read from it. * marks the point of attachment. X3 = O=C([C@@H](Cc1ccc(CS(=O)(=O)O)cc1)N[*:1])[*:2]; Heptanoyl(6-Me) = CC(C)CCCCC(=O)*; Sulfomethyl = O=S(=O)(O)C*; dOrn = NCCC[C@@H](N)C(=O)O; Nonanoyl = CCCCCCCCC(=O)*; X1 = CC[C@H](C)CCCCC(=O)*; dDab = NCC[C@@H](N)C(=O)O; Heptanoyl = CCCCCCC(=O)*; Octanoyl = CCCCCCCC(=O)*; Orn = NCCC[C@H](N)C(=O)O; dDap = NC[C@@H](N)C(=O)O; Dab = NCC[C@H](N)C(=O)O; Dap = NC[C@H](N)C(=O)O

Solved entries:
compound	IC50 at 72 h
CCCCCCCC(=O)N[C@@H](CCN)C(=O)N[C@H](C(=O)N[C@H](CN)C(=O)N[C@H]1CCNC(=O)[C@H]([C@@H](C)O)NC(=O)[C@H](CCN)NC(=O)[C@H](CCN)NC(=O)[C@H](CC(C)C)NC(=O)[C@@H](Cc2ccccc2)NC(=O)[C@H](CCN)NC1=O)[C@@H](C)O [Compound 33] (Octanoyl-[Dab]T[dDap][Dab][Dab][dF]L[Dab][Dab]T; lactam 4-C)	339 µg/mL
CC[C@H](C)CCCCC(=O)N[C@@H](CCN)C(=O)N[C@H](C(=O)N[C@H](CCCN)C(=O)N[C@H]1CCNC(=O)[C@H]([C@@H](C)O)NC(=O)[C@H](CCN)NC(=O)[C@H](CCN)NC(=O)[C@H]([C@@H](C)O)NC(=O)[C@@H](Cc2ccccc2)NC(=O)[C@H](CCN)NC1=O)[C@@H](C)O [Compound 21] (X1-[Dab]T[dOrn][Dab][Dab][dF]T[Dab][Dab]T; lactam 4-C)	> 500 µg/mL
CCCCCCCCC(=O)N[C@@H](CCN)C(=O)N[C@H](C(=O)N[C@H](CCN)C(=O)N[C@H]1CCNC(=O)[C@H]([C@@H](C)O)NC(=O)[C@H](CCN)NC(=O)[C@H](CCN)NC(=O)[C@H]([C@@H](C)O)NC(=O)[C@@H](Cc2ccccc2)NC(=O)[C@H](CCN)NC1=O)[C@@H](C)O [Compound 15] (Nonanoyl-[Dab]T[dDab][Dab][Dab][dF]T[Dab][Dab]T; lactam 4-C)	320 µg/mL
CC[C@H](C)CCCCC(=O)N[C@@H](CCN)C(=O)N[C@H](C(=O)N[C@H](CCCN)C(=O)N[C@H]1CCNC(=O)[C@H]([C@@H](C)O)NC(=O)[C@H](CCN)NC(=O)[C@H](CCN)NC(=O)[C@H](CC(C)C)NC(=O)[C@@H](Cc2ccccc2)NC(=O)[C@H](CCN)NC1=O)[C@@H](C)O [Compound 41] (X1-[Dab]T[dOrn][Dab][Dab][dF]L[Dab][Dab]T; lactam 4-C)	259 µg/mL
CC(C)CCCCC(=O)N[C@@H](CCN)C(=O)N[C@H](C(=O)N[C@@H](CN)C(=O)N[C@H]1CCNC(=O)[C@H]([C@@H](C)O)NC(=O)[C@H](CCN)NC(=O)[C@H](CCN)NC(=O)[C@H]([C@@H](C)O)NC(=O)[C@@H](Cc2ccc(CS(=O)(=O)O)cc2)NC(=O)[C@H](CCN)NC1=O)[C@@H](C)O [Compound 116] ({Heptanoyl(6-Me)}-[Dab]T[Dap][Dab][Dab][X3]T[Dab][Dab]T; lactam 4-C)	> 500 µg/mL

// IC50 at 72 h value for CC(C)CCCCC(=O)N[C@@H](CCN)C(=O)N[C@H](C(=O)N[C@H](COCS(=O)(=O)O)C(=O)N[C@H]1CCNC(=O)[C@H]([C@@H](C)O)NC(=O)[C@H](CCN)NC(=O)[C@H](CCN)NC(=O)[C@H]([C@@H](C)O)NC(=O)[C@@H](Cc2ccccc2)NC(=O)[C@H](CCN)NC1=O)[C@@H](C)O [Compound 103] ({Heptanoyl(6-Me)}-[Dab]T[dS](Sulfomethyl)[Dab][Dab][dF]T[Dab][Dab]T; lactam 4-C) : > 500 µg/mL

// IC50 at 72 h value for CCCCCCC(=O)N[C@@H](CCN)C(=O)N[C@H](C(=O)N[C@@H](CN)C(=O)N[C@H]1CCNC(=O)[C@H]([C@@H](C)O)NC(=O)[C@H](CCN)NC(=O)[C@H](CCN)NC(=O)[C@H]([C@@H](C)O)NC(=O)[C@@H](Cc2ccccc2)NC(=O)[C@H](CCN)NC1=O)[C@@H](C)O [Compound 9] (Heptanoyl-[Dab]T[Dap][Dab][Dab][dF]T[Dab][Dab]T; lactam 4-C) : > 500 µg/mL

// IC50 at 72 h value for CCCCCCCC(=O)N[C@@H](CCN)C(=O)N[C@H](C(=O)N[C@H](CO)C(=O)N[C@H]1CCNC(=O)[C@H]([C@@H](C)O)NC(=O)[C@H](CCN)NC(=O)[C@H](CN)NC(=O)[C@H]([C@@H](C)O)NC(=O)[C@@H](Cc2ccccc2)NC(=O)[C@H](CCN)NC1=O)[C@@H](C)O [Compound 73] (Octanoyl-[Dab]T[dS][Dab][Dab][dF]T[Dap][Dab]T; lactam 4-C) : > 500 µg/mL

// IC50 at 72 h value for CCCCCCCC(=O)N[C@@H](CCN)C(=O)N[C@H](C(=O)N[C@H](CO)C(=O)N[C@H]1CCNC(=O)[C@H]([C@@H](C)O)NC(=O)[C@H](CN)NC(=O)[C@H](CCN)NC(=O)[C@H]([C@@H](C)O)NC(=O)[C@@H](Cc2ccccc2)NC(=O)[C@H](CCN)NC1=O)[C@@H](C)O [Compound 83] (Octanoyl-[Dab]T[dS][Dab][Dab][dF]T[Dab][Dap]T; lactam 4-C) : > 500 µg/mL

// IC50 at 72 h value for CCCCCCCC(=O)N[C@@H](CCN)C(=O)N[C@H](C(=O)N[C@H](CO)C(=O)N[C@H]1CCNC(=O)[C@H]([C@@H](C)O)NC(=O)[C@H](CCN)NC(=O)[C@H](CCN)NC(=O)[C@H]([C@@H](C)O)NC(=O)[C@@H](Cc2ccccc2)NC(=O)[C@H](CCCN)NC1=O)[C@@H](C)O [Compound 68] (Octanoyl-[Dab]T[dS][Dab][Orn][dF]T[Dab][Dab]T; lactam 4-C) : > 500 µg/mL
